system: SK-MEL-28 melanoma; assay: NCI-60 one-dose screen, 48 h (100 = growth as untreated, 0 = no growth, -100 = all killed); settings: 10 µM unless noted
About 83,000 compounds went through this panel and 20% of them were active in at least one assay; those are over-represented in the sample as a whole.
Measured growth of individual entries
Express it in %; write the number only.

Observe how each entry below is paired with its result.
compound | growth, %
Cc1cc(O)c(C2=NN(c3ccc(S(N)(=O)=O)cc3)C(/C=C/c3ccccc3)C2)cc1Cl (stereo not given) | 23.9
C=C1C(=O)O[C@H]2[C@H]1CC/C(COC(=O)NCCOCCOCC(=O)Nc1ccc(OC)c(C(N)=O)c1O)=C\CC[C@@]1(C)O[C@@H]21 | 47.1
c1ccc(-c2nc3sc(-c4ccccc4)cn3n2)cc1 | 107
Cc1nc2ccccc2n1CC1C(=O)NC(=O)NC1=O | 108

Could you now look at the following compound, please?
Prompt: Look at this compound and give its reported growth. `CCCCOc1ccc(/C=N/NC(N)=S)cc1`
Response: 96.5

---

test system: UO-31 renal; experiment: NCI-60 one-dose screen, 48 h; details: 10 µM unless noted
About 83,000 compounds went through this panel and 20% of them were active in at least one assay; those are over-represented in the sample as a whole. Calls of active or inactive are those of the source. Rule for the calls: active = growth percent below 10; inactive = the rest.
Please reply with one of these outcomes: T (active), F (inactive)

Reference set, count: 3
compound | className
COC(=O)C(Cc1ccccc1)NC(=O)NC(=O)NC(=O)CI (centres undefined) | F
Cc1ccccc1C(=O)NN | F
CCCCn1c(=O)c(-c2cc(-c3ccc(Cl)cc3)nc(-c3ccc(Cl)cc3)c2)cc2ccc(Cl)cc21 | F

Prompt: Which outcome was entered for the compound `COc1ccc(OC)c(/C=C2\Oc3cc(OCCN4CCC(Cc5ccccc5)CC4)ccc3C2=O)c1` in this test?
Response: F

Prompt: // param item: `O=S(=O)(Nc1ccc(-c2nc(-c3cccc(OCCN4CCOCC4)c3)c(-c3ccnc(Br)c3)[nH]2)cc1)c1ccccc1` ; yields the recorded call
Response: F

Prompt: // outcome(item) with item = `CCOC(=O)/C=C1\S/C(=N\Nc2ccc([N+](=O)[O-])cc2[N+](=O)[O-])N(Cc2ccccc2)C1=O`
Response: F

Prompt: Hi, sorry to bother you, what did the test record for `CC/C=C\C[C@@H]1C/C=C2/C(=O)C=C[C@H]2C/C=C\CCCC(=O)O1` ?
Response: T

Prompt: # fetch the recorded call for Cc1ccc(C(=O)NN2C(=O)CSC2c2cccc([N+](=O)[O-])c2)cn1 (centres undefined) here
Response: F

Prompt: Hello, I am checking results. What call was entered for `COc1ccc(-c2nc(NN)c3c(C)nn(-c4ccc(F)cc4)c3n2)cc1` ?
Response: F

Prompt: GET /call?item= `O=c1c2cccc(Cl)c2sc2c(NCCCNCCO)nc3ccccc3c12` returns the recorded outcome of this test.
Response: F

Prompt: Which result was noted for this compound in the test: `CCc1ccc(Oc2c(-c3ccc(OCc4ccc(Cl)cc4)cc3O)n[nH]c2C(F)(F)F)cc1`
Response: T

Prompt: For O=C(CS(=O)c1oc(-c2cccs2)nc1S(=O)(=O)c1ccc(Br)cc1)c1ccccc1 (centres undefined) , what call appears in the results of this test?
Response: F

Prompt: Per the records of this test, what outcome belongs to CC(=O)N1N=C(c2ccc(Nc3nc(Nc4ccc(F)cc4)nc(Nc4ccc(Cl)cc4)n3)cc2)CC1c1ccc(Cl)cc1 (centres undefined) ?
Response: F

Prompt: For `NCCCNc1nc2ccccc2c2c(=O)c3cc(F)cc(F)c3sc12` , which call appears in the assay record?
Response: T

Prompt: What is the recorded call for this compound in the test? `Clc1ccc2c(c1)N(CCCN1CCCC1)c1ccccc1S2`
Response: F

Prompt: // return assay outcome for `COc1cccc(-c2nc(-c3ccc(NC(=O)C(C)C)cc3)[nH]c2-c2ccnc(Br)c2)c1`
Response: F

Prompt: Assay result, entry COc1cc(C(=O)N2N=C(c3ccc(S(C)(=O)=O)cc3)CC2c2ccco2)cc(OC)c1OC (centres undefined) — outcome?
Response: F

Prompt: Please share the test call associated with `CN(C)CCS(=O)(=O)Nc1cc(-c2ccc3ncc(C#N)c(Nc4ccc(F)c(Cl)c4)c3c2)cnc1Cl` .
Response: T

Prompt: Dear all, I need the recorded test outcome for `Brc1ccc2[nH]cc(-c3nc(-c4c[nH]c5ccncc45)cs3)c2c1` , thank you.
Response: T

---

test system: SNB-75 CNS; experiment: NCI-60 one-dose screen, 48 h (100 = growth as untreated, 0 = no growth, -100 = all killed); conditions: 10 µM unless noted
The panel holds about 83,000 compounds, 20% with a hit somewhere; the sample as a whole holds those more often. Activity calls are given as the source filed them. How the source made its calls: active means growth percent below 10; inactive means the rest.
reportedEndpoint: growth

Answered cases to consult:
compound | measuredOn | reportedEndpoint | result
COc1nc2ccccc2cc1-c1nc2c(cnn2-c2ccc(Br)cc2)c(=O)[nH]1 | SNB-75 CNS | growth | -12.9% (active)
CN1C(=O)CNC(=O)[C@H](NC(=O)c2nc3ccccc3cc2O)CSSC[C@H]1C(=O)NCCCc1nc2ccccc2cc1O | SNB-75 CNS | growth | 151% (inactive)
COc1ccc2c(c1OC)C(=O)O[C@H]2[C@H]1c2c(cc3c(c2OC)OCO3)CCN1C | SNB-75 CNS | growth | 88.5% (inactive)

Kindly review the next compound as well.
Prompt: Requested field: growth. Item: `COc1c(B(O)O)cc(F)cc1-c1nc2ccc3[nH]ncc3c2c2c1CCCC2`
Response: -94.5% (active)

---

tested on: EKVX NSCLC; assay: NCI-60 one-dose screen, 48 h (100 = growth as untreated, 0 = no growth, -100 = all killed); details: 10 µM unless noted
The panel holds about 83,000 compounds, 20% with a hit somewhere; the sample as a whole holds those more often.
reportedEndpoint: growth (%)
The answer is to be given in %; state only the numeric part.

# count of solved cases: 4
moleculeSmiles | measuredOn | unitString | growth
COc1ccc(-c2csc(NC(=O)N3CCN(c4cc5c(cc4F)c(=O)c(C(=O)O)cn5C4CC4)CC3)n2)cc1 | EKVX NSCLC | % | 23.1
CN(C)CCCNc1nc2ccccc2c2c(=O)c3cc(F)ccc3sc12 | EKVX NSCLC | % | 66.3
Cc1c(C(=O)NCCCc2ccccc2)sc2ncc(-c3ccc(Br)cc3)n12 | EKVX NSCLC | % | 106
COc1ccc(N)c(N)c1 | EKVX NSCLC | % | 105

Next, consider the following compound.
Prompt: Param item = `CC/C=C\C[C@@H](O)C/C=C1/C(=O)C=C[C@H]1C/C=C\CCCC(=O)OC` ; retrieve measured growth.
Response: 88.2

---

tested on: HS 578T breast; assay: NCI-60 one-dose screen, 48 h (100 = growth as untreated, 0 = no growth, -100 = all killed); details: 10 µM unless noted
Compounds without any hit were thinned out: in the full panel of roughly 83,000, 20% have a hit.
Classification by growth | ranges: A (below 30%), B (30% to below 90%), C (90% or more)

compound | className
O=C(O)c1cn(C2CC2)c2cc(N3CCN(C(=O)Nc4nc(-c5ccc(Cl)cc5)cs4)CC3)c(F)cc2c1=O | B
COc1ccc(-c2nc(NN)c3c(C)nn(-c4ccc(F)cc4)c3n2)cc1 | A

Prompt: Given COc1cccc2nc3n(c12)C(c1c(F)cccc1F)SC3 (stereo unspecified) , name the class its growth places it in.
Response: C

Prompt: For the record COC1=C(C)C(=O)c2c(c(CCCl)c3n2CCC3O)C1=O (stereo unspecified) , report the class its growth corresponds to.
Response: A

Prompt: # classify by growth band: `O=C(O)CCC(=O)Nc1nnc(-c2ccccc2)s1`
Response: C

Prompt: Which category fits this record: Cc1cccc2c3c(sc12)C(c1ccc(Cl)cc1)C(C#N)=C(N)O3 (stereo unspecified)
Response: A

Prompt: Dear colleague, I would appreciate it if you could identify the bin for CNc1nc2c(s1)C(c1cc(F)ccc1F)CC(=O)N2 (stereo unspecified) and reply at your convenience.
Response: B

Prompt: Into which category would you place `COc1cc2cc(Oc3ccc(NC(=O)Nc4cc(C(F)(F)F)cc(C(F)(F)F)c4)cc3)c(C)nc2cc1OCCN1CCOCC1` ?
Response: B

Prompt: Could you tell me which band `NCCOc1ncccc1/C=C1\c2ccccc2-c2ccc(C(F)F)cc21` belongs to?
Response: B

Prompt: Class for CNC(C)[C@H]1CCC2C3CCC4C[C@@H](N(C)C(=O)c5ccccc5)CC[C@]4(C)C3CC[C@@]21C (stereo partly specified) ?
Response: B

Prompt: Kindly identify the class of `CCCCN(C)N=Nc1ccc(C(N)=O)cc1` .
Response: C

---

test system: SF-295 CNS; test: NCI-60 one-dose screen, 48 h; conditions: 10 µM unless noted
The panel holds about 83,000 compounds, 20% with a hit somewhere; the sample as a whole holds those more often. Activity calls are given as the source filed them. Rule for the calls: active = growth percent below 10; inactive = the rest.
Output constraint: value belongs to 1 for active, 0 for inactive

Use the examples below as a reference point.
molecule | className
COc1ccc(-c2cc(-c3ccc(Cl)cc3)c(C#N)c(=O)n2CCCCCC(=O)Nc2ccccc2N)cc1 | 1
CC(=O)CC(c1cccs1)c1c(-c2ccccc2)[nH]c2ccccc12 (stereo unspecified) | 0
CC1CN(C2CCCCC2)C(=S)N(c2ccccc2)C1=O (stereo unspecified) | 0
COc1ccn2c(C(C)=O)cc(C(=O)c3ccc4c(c3)Sc3ccccc3N4)c2c1 | 0
CCOc1cccc(NC2=C(Br)C(=O)C(C)=C(C)C2=O)c1 | 0
c1ccc2c(c1)Nc1ccncc1S2 | 0

Prompt: Please let me know the test result on file for `CCOC(=O)c1cn2ncnc(Oc3ccc(NC(=O)NCCN(C)C)c(Cl)c3)c2c1C` .
Response: 0

Prompt: What classification did `O=C(/C=C/c1sc(Cl)nc1Cl)c1ccccc1` end up with in this test?
Response: 0

Prompt: Called result for N#CC1=C(N)Oc2c(sc3c(Br)cccc23)C1c1ccc([N+](=O)[O-])cc1 (stereo unspecified)
Response: 1

Prompt: Could you check what this test reported for Cc1cc(O)c(C2=NN(c3ccc(S(N)(=O)=O)cc3)C(c3ccccc3O)C2)cc1Cl (stereo unspecified) ?
Response: 0

Prompt: Name the outcome recorded for `COc1ccc(CN2c3ccccc3Sc3ccccc32)c(F)c1` in the assay.
Response: 1

Prompt: Outcome? `Cc1ccc(-c2nc3c(c(-c4ccccc4)nn3-c3ccccc3)c(-c3ccc(O)cc3)c2C#N)cc1`
Response: 1

Origin of the recorded values: PubChem BioAssay (NCI)
